Overview of reported kon across a group of binders:
Molecular target: T1, Human ST2 (human, UniProt Q01638 19-328, limits assumed)
T1 construct: also called human ST2 protein; Interleukin 1 receptor-like 1
T1 sequence (looked up): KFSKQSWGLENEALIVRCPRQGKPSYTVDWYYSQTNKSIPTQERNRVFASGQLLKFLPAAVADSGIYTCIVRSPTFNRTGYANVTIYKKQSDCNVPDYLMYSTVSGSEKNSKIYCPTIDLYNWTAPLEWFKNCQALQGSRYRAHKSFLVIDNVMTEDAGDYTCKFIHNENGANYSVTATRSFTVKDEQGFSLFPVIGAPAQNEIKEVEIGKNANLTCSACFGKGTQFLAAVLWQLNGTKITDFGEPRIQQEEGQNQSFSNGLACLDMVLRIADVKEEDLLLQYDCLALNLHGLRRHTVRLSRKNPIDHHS
Assay: SPR (Carterra), antibody immobilized, ST2 analyte
Respond with the bare value in M⁻¹ s⁻¹.

Query (binder): Human ST2 IgG1 Antibody 10 (antibody, V domains shown, IgG1; also called ST2 Antibody 10) VH: QVQLVQSGAEVKKPGSSVKVSCKASGGTFGYYAISWVRQAPGQGLEWMGGIIPMVGTGQYAQEFQGRVTITADESTSTAYMELSSLRSEDTAVYYCAGVEVGATRGYFQHWGQGTLVTVSS VL: DIVMTQSPLSLPVTPGEPASISCRSSQSLLHSNGYNYLDWYLQKPGQSPQLLIYAASTLQSGVPDRFSGSGSGTDFTLKISRVEAEDVGVYYCMQGTHWPTTFGQGTRLEIKR ; field requested: kon 600000

Query (binder): Human ST2 IgG1 Antibody 63 (antibody, V domains shown, IgG1; also called ST2 Antibody 63) VH: QVQLVQSGAEVKKPGSSVKVSCKASGGTFSSDAINWVRQAPGQGLEWMGGIVPAFGTANYAQKFQGRVTITADESTSTAYMELSSLRSEDTAVYYCARSSSSWPYYYYYMDVWGKGTTVTVSS VL: DIVMTQSPLSLPVTPGEPASISCRSSQSLLLNNGNNFIDWYLQKPGQSPQLLIYAASILQGGVPDRFSGSGSGTDFTLKISRVEAEDVGVYYCMQALQTPPTFGQGTKVEIKR ; field requested: kon 450000
